# EC50 annotations
- TARGET UNDER TEST: human α7 nicotinic acetylcholine receptor (HEK cell line stably expressing human RIC-3 and human α7) (Homo sapiens, UniProt P36544)
- Construct: host or cells: HEK cell line (PrecisION hnAChR α7/RIC-3)
- Sequence (P36544 23-502): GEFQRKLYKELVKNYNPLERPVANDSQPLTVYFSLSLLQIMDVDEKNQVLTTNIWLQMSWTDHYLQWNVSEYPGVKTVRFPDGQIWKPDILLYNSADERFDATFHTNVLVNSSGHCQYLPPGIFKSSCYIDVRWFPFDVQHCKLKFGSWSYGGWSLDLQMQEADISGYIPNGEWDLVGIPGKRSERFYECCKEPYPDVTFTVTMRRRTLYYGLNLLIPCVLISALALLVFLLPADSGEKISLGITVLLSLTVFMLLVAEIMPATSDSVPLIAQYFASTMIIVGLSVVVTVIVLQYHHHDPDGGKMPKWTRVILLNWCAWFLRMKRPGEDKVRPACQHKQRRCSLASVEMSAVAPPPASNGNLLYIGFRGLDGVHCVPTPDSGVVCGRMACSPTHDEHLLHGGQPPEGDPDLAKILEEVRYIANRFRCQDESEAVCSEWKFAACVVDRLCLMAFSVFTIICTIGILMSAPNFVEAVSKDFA
- PROCEDURE SUMMARY: Automated patch-clamp electrophysiology functional assay (Assay A), IonFlux HT, whole-cell population patch
- Assay type: cell-based
- TEST SETTINGS: HEK cells expressing human α7/RIC-3; test compound with or without 40 μM acetylcholine; holding potential −60 mV; room temperature; read-out: α7 nAChR Potency

> print(dat)
                                   compound   readout.value
1  Cc1ccccc1-c1nc([C@@H]2CC23CCN(S(N)(=O)=O)CC3)no1   100 to 500 nM
2  NS(=O)(=O)N1CCC2(CC1)C[C@H]2c1csc(-c2cccc(OC(F)(F)F)c2)n1  500 to 5000 nM
3  NS(=O)(=O)N1CCC2(CC2c2nc(-c3conc3C3CC3)no2)C(F)C1 (single isomer, unassigned) [Example I7]  500 to 5000 nM

The compound listed as NS(=O)(=O)N1CCC2(CC1)C[C@H]2c1nnc(-c2ccc(F)cc2C(F)(F)F)s1 has a reported EC50 of 500 to 5000 nM

The compound listed as NS(=O)(=O)N1CCC2(CC1)[C@H](c1coc(-c3ccc(F)cc3C(F)(F)F)n1)C2(F)F has a reported EC50 of < 100 nM

All values here come from patent US11332463B2.
